Entries and their GI50
# Test system: SNB-19 CNS
# test.name: NCI tumour cell line growth inhibition, 48 h
property: GI50

[[record]]
molecule = "Cc1ccc(NC(=O)c2ccoc2)cc1-c1ccc(C(=O)NCC2CC2)cc1"
result = "> 25 µM"

[[record]]
molecule = "O=C(O)CN(CCN(CC(=O)O)CC(=O)O)CCN(CC(=O)O)CC(=O)O"
result = "5.18 µM"

[[record]]
molecule = "CCn1c(-c2nonc2N)nc2cnc(Oc3cccc(NC(=O)c4ccc(OCCN5CCOCC5)cc4)c3)cc21"
result = "12.1 µM"

[[record]]
molecule = "Cc1ccc(/C=C/C(=O)c2ccc(F)cc2)s1"
result = "11.3 µM"

[[record]]
molecule = "O=c1c2ccccc2c(=O)n2n1-c1cccc(c1)CSSCc1cccc-2c1"
result = "> 100 µM"

